Measured values drawn from ChEMBL document CHEMBL6121063 for this set.

molecular target: Protein cereblon/Cyclin-dependent kinase 9 (Homo sapiens, UniProt P50750+Q96SW2); assay: PROTAC activity at CRBN/CDK9 in human NCI-H446 cells assessed as induction of CDK9 degradation at 10 nM by Western blot analysis relative to control; type: cell-based
Sequence (P50750 whole entry, looked up): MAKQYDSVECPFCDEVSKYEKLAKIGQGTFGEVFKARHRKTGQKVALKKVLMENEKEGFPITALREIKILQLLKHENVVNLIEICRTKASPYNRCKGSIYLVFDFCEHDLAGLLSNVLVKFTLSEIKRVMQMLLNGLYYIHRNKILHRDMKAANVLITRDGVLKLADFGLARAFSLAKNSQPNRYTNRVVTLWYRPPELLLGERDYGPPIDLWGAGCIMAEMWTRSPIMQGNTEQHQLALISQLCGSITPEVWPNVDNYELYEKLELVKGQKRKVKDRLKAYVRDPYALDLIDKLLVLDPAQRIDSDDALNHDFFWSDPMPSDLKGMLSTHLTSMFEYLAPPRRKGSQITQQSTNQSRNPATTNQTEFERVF
Sequence (Q96SW2 whole entry, looked up): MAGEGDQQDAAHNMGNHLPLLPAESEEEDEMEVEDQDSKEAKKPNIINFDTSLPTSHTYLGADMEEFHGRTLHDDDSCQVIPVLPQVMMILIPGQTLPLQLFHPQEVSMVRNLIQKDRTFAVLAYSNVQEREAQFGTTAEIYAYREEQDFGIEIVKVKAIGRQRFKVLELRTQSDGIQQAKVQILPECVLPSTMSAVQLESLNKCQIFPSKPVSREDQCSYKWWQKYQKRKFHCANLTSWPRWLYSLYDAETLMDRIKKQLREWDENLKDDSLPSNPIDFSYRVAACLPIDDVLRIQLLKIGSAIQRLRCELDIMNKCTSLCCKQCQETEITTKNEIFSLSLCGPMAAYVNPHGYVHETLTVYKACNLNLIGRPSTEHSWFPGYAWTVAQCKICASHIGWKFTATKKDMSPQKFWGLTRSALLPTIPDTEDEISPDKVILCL
reported_property: Activity
Please state the value followed by its unit.

# molecule, reported_property, experimental_result
records = [
    ("CN1C(=O)CCC(Nc2cccc(N3CCN(CC4CCN(CC(=O)N5CCC(NC(=O)c6n[nH]cc6NC(=O)c6c(Cl)cccc6Cl)CC5)CC4)CC3)c2)C1=O (stereo unspecified)", "Activity", "3.15%"),
    ("O=C1CCC(N2C(=O)c3cccc(NCCCCCCN4CCC(NC(=O)c5n[nH]cc5NC(=O)c5c(Cl)cccc5Cl)CC4)c3C2=O)C(=O)N1 (stereo unspecified)", "Activity", "39.4%"),
    ("O=C1CCC(N2C(=O)c3ccc(N4CCN(C(=O)CCCC(=O)N5CCC(NC(=O)c6n[nH]cc6NC(=O)c6c(Cl)cccc6Cl)CC5)CC4)cc3C2=O)C(=O)N1 (stereo unspecified)", "Activity", "3.22%"),
    ("O=C1CCC(N2C(=O)c3cccc(NCCCCCC(=O)N4CCC(NC(=O)c5n[nH]cc5NC(=O)c5c(Cl)cccc5Cl)CC4)c3C2=O)C(=O)N1 (stereo unspecified)", "Activity", "27.1%"),
    ("O=C(CNc1cccc2c1C(=O)N(C1CCC(=O)NC1=O)C2=O)NCCCCCCCCCCC(=O)N1CCC(NC(=O)c2n[nH]cc2NC(=O)c2c(Cl)cccc2Cl)CC1 (stereo unspecified)", "Activity", "27.9%"),
]

Any idea what its Activity is? The molecule is O=C1CCC(N2C(=O)c3cccc(NCCCCC(=O)N4CCC(NC(=O)c5n[nH]cc5NC(=O)c5c(Cl)cccc5Cl)CC4)c3C2=O)C(=O)N1 (stereo unspecified) 9.92%

====

test: Cmax in Sprague-Dawley rat at 5 mg/kg, iv measured after 12 hrs by LC-MS/MS analysis; type: ADME, organism-based; settings: in vivo
reported_property: Cmax (ng/mL)
# output: bare number, implied unit ng/mL

Any idea what its Cmax is? The compound is O=C1CCC(Nc2cccc(N3CCN(CC4CCN(CC(=O)N5CCC(NC(=O)c6n[nH]cc6NC(=O)c6c(Cl)cccc6Cl)CC5)CC4)CC3)c2)C(=O)N1 (stereo unspecified) 2000

====

assay: Half-life in Sprague-Dawley rat at 5 mg/kg, iv measured after 12 hrs by LC-MS/MS analysis; format: ADME, organism-based; settings: in vivo
reported_property: half-life

Any idea what its half-life is? The molecule is O=C1CCC(Nc2cccc(N3CCN(CC4CCN(CC(=O)N5CCC(NC(=O)c6n[nH]cc6NC(=O)c6c(Cl)cccc6Cl)CC5)CC4)CC3)c2)C(=O)N1 (stereo unspecified) 2.8 h

====

test: Metabolic stability in mouse liver microsomes assessed as parent compound remaining measured after 60 mins; format: ADME, Microsome; details: read-out: Stability
remaining at 1 h by entry:
# output: bare number, implied unit %

Here is how some molecules turned out for remaining at 1 h.
# molecule, value_unit, remaining at 1 h
rows = [
    ("O=C1CCC(Nc2ccc(N3CCN(CC4CCN(CC(=O)N5CCC(NC(=O)c6n[nH]cc6NC(=O)c6c(Cl)cccc6Cl)CC5)CC4)CC3)cc2)C(=O)N1 (stereo not given)", "%", 72),
    ("O=C1CCC(Nc2cccc(N3CCN(CC4CCN(CC(=O)N5CCC(NC(=O)c6n[nH]cc6NC(=O)c6c(Cl)cccc6Cl)CC5)CC4)CC3)c2)C(=O)N1 (stereo not given)", "%", 82.8),
]

Any idea what its remaining at 1 h is? The molecule is O=C1CCC(N2C(=O)c3ccc(N4CCN(CC5CCN(CC(=O)N6CCC(NC(=O)c7n[nH]cc7NC(=O)c7c(Cl)cccc7Cl)CC6)CC5)CC4)cc3C2=O)C(=O)N1 (stereo not given) 71.9

Any idea what its remaining at 1 h is? The molecule is O=C1CCC(N2C(=O)c3ccc(N4CCN(CC(=O)N5CCC(CN6CCC(NC(=O)c7n[nH]cc7NC(=O)c7c(Cl)cccc7Cl)CC6)CC5)CC4)cc3C2=O)C(=O)N1 (stereo not given) 61.1

Any idea what its remaining at 1 h is? The molecule is O=C1CCC(N2C(=O)c3ccc(N4CCN(CC5CCN(C(=O)CN6CCC(NC(=O)c7n[nH]cc7NC(=O)c7c(Cl)cccc7Cl)CC6)CC5)CC4)cc3C2=O)C(=O)N1 (stereo not given) 61.2
